Test system: SEM cells
run.description: cell viability relative to DMSO control; higher = less cytotoxic
condition.summary: RPMI 5 mM glucose + 10% dialyzed FBS; 48 h; 5.12 µM
measured.property: cell viability (%)
API: value field is a number in %; no unit string.

The examples below pair each entry with its known result.
> print(dat)
                                   compound  measured.property   val
1  COCCCOc1ccnc(C[S+]([O-])c2nc3ccccc3[nH]2)c1C (centres undefined)     cell viability   115
2     Cc1cc(-c2nnc3n2CCCCC3)c(C)n1-c1ccccc1     cell viability   114
3  CN1/C=C(\N=C(NC2=CC=C(C=C2)C(=O)N3CCOCC3)/C1=O)/C4=C(C)C(=CC=C4)NC(=O)C5=CC=C(C=C5)C(C)(C)C     cell viability  92.2
4            C=CCc1cc(OC)c(O)c(C(=O)NCCO)c1     cell viability  96.6
5  CCCCCCCCOc1ccccc1C(=O)Nc1ccc(C(=O)OCC[N+](C)(CC)CC)cc1     cell viability  75.5

Query string: Please give the measured cell viability for this compound: O=C1CCC[C@@H]2[C@H]3CCC[N+]4([O-])CCC[C@@H](CN12)[C@@H]34 (some centres undefined)
Result string: 91.1

Query string: Query "C=CC(=O)Nc1cccc(Oc2nc(Nc3ccc(N4CCN(C)CC4)cc3OC)ncc2Cl)c1" next
Result string: 24.1

Query string: Query "CCc1c(O)cc(O)c(C(=O)c2ccc(OCCN3CCOCC3)c(OC)c2)c1CC(=O)N(CCOC)CCOC" next
Result string: 32.9

Query string: Query "O=[S+]([O-])(/N=C/c1c(O)ccc2ccccc12)c1cccs1" next
Result string: 98.2
